From: PubChem BioAssay (NCI)

test system: SN12C renal; experiment: NCI tumour cell line growth inhibition, 48 h
TGI of 10 µM or higher: Satisfied. Under 10 µM: Not satisfied.

Reference set (5 entries):
| compound | testedOn | group |
| --- | --- | --- |
| CCC(=C/[C@H](C)C/C=C/C(C)=C/[C@@H](C)C(=O)[C@@H](C)[C@H](O)[C@@H](C)CC)/C=C/[C@@H]1OC(=O)C=C[C@@H]1C | SN12C renal | Not satisfied |
| CC/C=C\C/C=C\C[C@H]1C/C=C2/C(=O)C=C[C@@H]2C/C=C\CCC(=O)O1 | SN12C renal | Not satisfied |
| COC1=C(OC)C23CCc4ccc(OC)c(O)c4C2(CCN3)CC1=O (stereo not given) | SN12C renal | Satisfied |
| COc1cccc2c1C(=O)c1c(O)c3c(c(O)c1C2=O)CC(O)(C(=O)CO)CC3OC1CC(N)C(I)C(C)O1 (stereo not given) | SN12C renal | Satisfied |
| COC(=O)CCC1(NS(=O)(=O)c2ccc(C)cc2)CCC(C(C)(C)C)CC1 (stereo not given) | SN12C renal | Satisfied |

[in] Hi team, for `c1ccc(CSc2nnc3c4c5c(sc4nc(-c4cccnc4)n23)CCCCCC5)cc1` , is the recorded TGI at or above 10 µM?
[out] Satisfied

[in] Hi team, for `Cc1ccc(Nc2nc(C)c(C(=O)CC(=O)C(=O)Nc3c(C)cccc3C(C)(C)C)s2)cc1` , is the recorded TGI at or above 10 µM?
[out] Satisfied

[in] Hi team, for `c1ccc(CSSSCc2ccccc2)cc1` , is the recorded TGI at or above 10 µM?
[out] Satisfied

[in] Hi team, for `Cc1nc2ccccc2c(/C=C/c2ccc(Cl)cc2)c1C(=O)/C=C/c1ccc(F)cc1` , is the recorded TGI at or above 10 µM?
[out] Not satisfied

[in] Hi team, for CSc1nc(SC)c2cnn(CC3CO3)c2n1 (stereo not given) , is the recorded TGI at or above 10 µM?
[out] Satisfied

---

tested on: SK-MEL-2 melanoma; experiment: NCI tumour cell line growth inhibition, 48 h; in the data active means GI50 below about 0.43 µM; inactive means the rest
*1 amine or outer side, *2 acyl side, *3 side chain or, on linkers, in order; H or OH if unused. Where a SMILES comes first, the peptide text is derived from it. Bridges are numbered along the chain shown (N, C = ends). [ ]: non-standard residue; d: D form. The star is where a group is joined. Phe(3,5-F2) = N[C@@H](Cc1cc(F)cc(F)c1)C(=O)O; Pro(4R-Me) = C[C@H]1CN[C@H](C(=O)O)C1; aThr = C[C@H](O)[C@H](N)C(=O)O; Pip = O=C(O)[C@@H]1CCCCN1; X10 = Fc1cc(C2CC2)ccc1N*; Abu = CC[C@H](N)C(=O)O; CO = O=C([*:1])[*:2]
Could you please pick one outcome from this set? active, inactive

Reference set (3 entries):
| compound | testedOn | group |
| --- | --- | --- |
| COc1ccc2c(c1OC)CO[C@@H]2[C@H]1c2c(c(Br)c3c(c2OC)OCO3)CCN1C | SK-MEL-2 melanoma | inactive |
| Oc1c(Cl)cc(Cl)c2ccc(Cn3cc(-c4cc(F)cc(F)c4)nn3)nc12 | SK-MEL-2 melanoma | inactive |
| CC[C@@H]1NC(=O)[C@@H]2CCCCN2C(=O)[C@@H]2CCCN2C(=O)[C@@H](NC(=O)[C@H](Cc2cc(F)cc(F)c2)NC(=O)Nc2ccc(C3CC3)cc2F)[C@H](C)OC(=O)[C@@H]2C[C@@H](C)CN2C1=O ({X10-CO}-[Phe(3,5-F2)][aThr]P[Pip][Abu][Pro(4R-Me)]; ester 2-C) | SK-MEL-2 melanoma | active |

[in] Would you mind telling me which call this test gave `O=C1Nc2ccccc2C1(c1c[nH]c2ccccc12)c1c[nH]c2ccccc12` ?
[out] inactive

[in] Would you mind telling me which call this test gave `COc1cnc2c(c1)C(=O)c1c-2n(CCCBr)c(=O)c2cc([N+](=O)[O-])ccc12` ?
[out] inactive

[in] Would you mind telling me which call this test gave CC(C)=NNc1ncnc2c1ncn2C1OC(CO)C(O)C1O (configuration not stated) ?
[out] inactive

[in] Would you mind telling me which call this test gave CCn1cc(C(=O)N/N=C/c2ccc(Br)cc2)c(=O)c2cc(F)c(N3CCNC(C)C3)c(F)c21 (configuration not stated) ?
[out] inactive

---

system: OVCAR-8 ovarian; assay: NCI tumour cell line growth inhibition, 48 h; in the data active = GI50 below about 0.43 µM; inactive = the rest
*1 amine or outer side, *2 acyl side, *3 side chain or, on linkers, in order; H or OH if unused. Where a SMILES comes first, the peptide text is derived from it. Bridges are numbered along the chain shown (N, C = ends). [ ]: non-standard residue; d: D form. The star is where a group is joined. Phe(3,5-F2) = N[C@@H](Cc1cc(F)cc(F)c1)C(=O)O; Pro(4R-Me) = C[C@H]1CN[C@H](C(=O)O)C1; aThr = C[C@H](O)[C@H](N)C(=O)O; Pip = O=C(O)[C@@H]1CCCCN1; X10 = Fc1cc(C2CC2)ccc1N*; Abu = CC[C@H](N)C(=O)O; CO = O=C([*:1])[*:2]
Could you please pick one outcome from this set? active, inactive

| molecule | group |
| --- | --- |
| Cn1cc(C2=C(c3c4n(c5ccccc35)CCN(C(N)=S)C4)C(=O)NC2=O)c2ccccc21 | inactive |
| COc1cc(C(C)c2ccc3c(ccn3C)c2)cc(OC)c1OC (stereo unspecified) | active |
| COc1ccc(CN2C(=O)C(Cl)=C(Nc3cccc(O)c3)C2=O)cc1 | inactive |
| O=C(CNc1c(Cl)cccc1Cl)Nc1ccc(-c2nc3ccccc3s2)cc1 | inactive |
| N.N.NCCCCCCN.O=C([O-])CCl.O=C([O-])CCl.O=C([O-])CCl.O=C([O-])CCl.[Pt+4].[Pt+4] | inactive |
| COc1ccc(F)cc1/C=C/C(=O)/C=C(/C=C/c1cc(F)ccc1OC)OB(F)F | inactive |
| Cc1cccc(NC2=C(Cl)C(=O)N(Cc3ccc(Cl)cc3)C2=O)c1 | inactive |
| Oc1ccc(-c2cn3ccsc3n2)cc1O | inactive |
| COc1cc(NC(=O)c2ccc(C(F)(F)F)nc2Nc2cc(Cl)ccc2C)cc(OC)c1OC | inactive |
| CC[C@@H]1NC(=O)[C@@H]2CCCCN2C(=O)[C@@H]2CCCN2C(=O)[C@@H](NC(=O)[C@H](Cc2cc(F)cc(F)c2)NC(=O)Nc2ccc(C3CC3)cc2F)[C@H](C)OC(=O)[C@@H]2C[C@@H](C)CN2C1=O ({X10-CO}-[Phe(3,5-F2)][aThr]P[Pip][Abu][Pro(4R-Me)]; ester 2-C) | active |

[in] Would you mind telling me which call this test gave `Oc1ccc(CCl)c2cccnc12` ?
[out] inactive

[in] Would you mind telling me which call this test gave `COc1cc2c(cc1OCCCNC(=O)/C=C1/C[C@H]3C=Nc4cc(OCc5ccccc5)c(OC)cc4C(=O)N3C1)NC(=O)[C@@H]1CCCN1C2=O` ?
[out] inactive

[in] Would you mind telling me which call this test gave `COc1cc(-c2nn(-c3ccc(NC(=O)NCCCNC(=O)c4ccccc4)cc3)cc2-c2ccncc2)ccc1Cl` ?
[out] inactive

[in] Would you mind telling me which call this test gave `COc1cnc2c(c1)C(=O)c1c-2n(CCCBr)c(=O)c2cc([N+](=O)[O-])ccc12` ?
[out] active

[in] Would you mind telling me which call this test gave `O=C1Nc2ccccc2C1(c1c[nH]c2ccccc12)c1c[nH]c2ccccc12` ?
[out] inactive

[in] Would you mind telling me which call this test gave `Cc1nc2ccccc2c(/C=C/c2ccc(Cl)cc2)c1C(=O)/C=C/c1ccc(F)cc1` ?
[out] inactive

---

tested on: KM12 colon; assay: NCI tumour cell line growth inhibition, 48 h
Would you mind telling me the reported TGI of each entry?

Completed entries (count: 10):
| compound | testedOn | measuredQuantity | result |
| --- | --- | --- | --- |
| CCOCCOc1ccc(OCCOCC)cc1 | KM12 colon | TGI | > 100 µM |
| O=S(=O)(c1ccccc1)C1CN2OC1(S(=O)(=O)c1ccccc1)CC21CCCCC1 (centres undefined) | KM12 colon | TGI | > 100 µM |
| CCc1c(C)[nH]c2c1/C(=N/N=C1\CCCc3[nH]c(C)c(CC)c31)CCC2 | KM12 colon | TGI | 31.3 µM |
| FC(F)(F)c1cccc2ns[s+]c12 | KM12 colon | TGI | > 100 µM |
| Oc1ccc(-c2cn3ccsc3n2)cc1O | KM12 colon | TGI | > 100 µM |
| c1cc2sc1CSCCSCCSC2 | KM12 colon | TGI | > 100 µM |
| CC(=O)Nc1ccc(NNc2cc(=O)n(C)c(=O)[nH]2)cc1 | KM12 colon | TGI | 24.4 µM |
| COc1ccc(C(O)c2cc3c(N)c(C(=O)Nc4cccc(OC)c4)sc3nc2C)cc1 (centres undefined) | KM12 colon | TGI | 2.41 µM |
| O=S(=O)(O)c1ccc(N=Nc2ccc(N=Nc3c(O)c(S(=O)(=O)O)cc4cc(S(=O)(=O)O)ccc34)cc2)cc1 | KM12 colon | TGI | > 100 µM |
| CCN(CC)c1ccc2c(cc1=O)[C@@H](NC(C)=O)CCc1cc(OC)c(OC)c(OC)c1-2 | KM12 colon | TGI | > 100 µM |

Record TGI for all entries; do not skip any.
1. Oc1c(Cl)cc(Cl)c2ccc(Cn3cc(-c4cc(F)cc(F)c4)nn3)nc12
2. C/C=C\C(CC(=O)O)CN1CCC2=C(C1)C(S(=O)(=O)C(F)(F)F)c1ccccc12 (centres undefined)
3. CC(C)(C)N/N=C(\C(=O)Nc1ccc([N+](=O)[O-])cc1[N+](=O)[O-])c1nc2ccc([N+](=O)[O-])cc2[nH]c1=O

[out]
["32.1 µM", "> 100 µM", "> 100 µM"]
